Target: PERK (Homo sapiens (Human), UniProt Q9NZJ5)
Sequence (Q9NZJ5 30-1116): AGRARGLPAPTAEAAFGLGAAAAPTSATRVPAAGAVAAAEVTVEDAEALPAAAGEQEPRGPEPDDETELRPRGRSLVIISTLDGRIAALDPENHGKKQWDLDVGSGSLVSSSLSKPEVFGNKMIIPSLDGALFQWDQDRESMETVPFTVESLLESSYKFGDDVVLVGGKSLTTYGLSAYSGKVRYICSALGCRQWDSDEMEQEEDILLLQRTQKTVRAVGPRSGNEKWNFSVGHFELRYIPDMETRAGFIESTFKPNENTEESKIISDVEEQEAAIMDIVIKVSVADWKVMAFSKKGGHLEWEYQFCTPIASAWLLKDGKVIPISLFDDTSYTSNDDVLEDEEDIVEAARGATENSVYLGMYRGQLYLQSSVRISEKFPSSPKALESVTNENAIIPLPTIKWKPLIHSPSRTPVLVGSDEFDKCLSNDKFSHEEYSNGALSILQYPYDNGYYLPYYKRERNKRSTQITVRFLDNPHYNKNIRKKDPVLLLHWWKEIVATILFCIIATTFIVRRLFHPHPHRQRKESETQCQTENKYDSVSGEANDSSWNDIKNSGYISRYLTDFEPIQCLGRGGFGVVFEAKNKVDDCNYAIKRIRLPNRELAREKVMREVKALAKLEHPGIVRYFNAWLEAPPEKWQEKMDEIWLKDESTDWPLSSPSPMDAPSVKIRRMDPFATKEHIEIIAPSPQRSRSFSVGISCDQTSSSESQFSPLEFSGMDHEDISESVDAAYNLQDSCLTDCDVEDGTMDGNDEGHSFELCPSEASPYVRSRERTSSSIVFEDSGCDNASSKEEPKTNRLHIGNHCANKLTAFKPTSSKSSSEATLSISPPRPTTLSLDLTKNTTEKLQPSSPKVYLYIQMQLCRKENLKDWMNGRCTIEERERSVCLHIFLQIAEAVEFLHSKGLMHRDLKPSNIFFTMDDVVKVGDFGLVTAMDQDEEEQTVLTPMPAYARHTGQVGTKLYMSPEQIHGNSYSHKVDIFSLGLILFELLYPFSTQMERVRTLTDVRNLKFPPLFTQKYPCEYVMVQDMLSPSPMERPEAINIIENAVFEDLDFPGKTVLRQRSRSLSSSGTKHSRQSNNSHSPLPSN
Test: PERK cellular assay (TR-FRET, HEK293-EGFP-eIF2α cells, tunicamycin-induced ER stress)
Assay type: cell-based
Conditions: tunicamycin 2 hours, read-out: Cellular IC50 (μM) (EIF2a)
endpoint.name: IC50

molecule: Nc1ncc(-c2ccc(NC(=O)C(O)c3cc(F)cc(F)c3)cc2Cl)nc1C(=O)NC1COC1 (stereo not shown) [Example 169]
IC50: 0.001 to 0.025 µM
--
molecule: Cc1cc(NC(=O)C(O)c2cc(F)cc(F)c2)ccc1-c1cnc(N)c(C(=O)NC2COC2)c1 (stereo not shown) [Example 25]
IC50: 0.501 to 1 µM
--
molecule: CC(C)NC(=O)c1cc(-c2ccc(NC(=O)C(O)c3cc(F)cc(F)c3)cc2C(F)(F)F)cnc1N (stereo not shown) [Example 36]
IC50: 0.051 to 0.1 µM

Inquiry: So what does the record say about IC50 for Cc1cc(NC(=O)C(O)c2cc(F)cc(F)c2)ccc1-c1cnc(N)c(C(=O)NC2CCOCC2)n1 (single isomer, unassigned) [Example 145] ?
Reply text: 0.051 to 0.1 µM
